System: passive cutaneous anaphylaxis (PCA)
Experiment description: Inhibitory effects on passive cutaneous anaphylaxis (PCA)
Assay type: in vivo, male SD rat
Measurement setup: po, 1 h; 100 mg/kg orally one hour prior to the antigen challenge, rat; read-out: P C A (p.o), degree of inhibition
Reported inhibition in vivo at 100 mg/kg values follow for various compounds

Worked examples, 6 compounds total:
CC(C)(C)C1CCc2oc3ccc(C(=O)O)cc3c(=O)c2C1 (centres unmarked) | 75 to 100%
Cc1ccc2c(=O)c3c(oc2c1)CCC(C(=O)Nc1nnn[nH]1)C3 (centres unmarked) | 0 to 25%
CC1CCc2oc3ccc(C(=O)Nc4ccccc4C(=O)O)cc3c(=O)c2C1 (centres unmarked) | 0 to 25%
O=C(O)c1cc(=O)c2c(OCC(O)COc3cccc4oc(C(=O)O)cc(=O)c34)cccc2o1 [Disodium cromoglycate, reference compound] | 0 to 25%
O=c1c2c(oc3cc(-c4nnn[nH]4)ccc13)CCCC2 | 50 to 75%
CC1CCc2oc3cc(-c4nnn[nH]4)ccc3c(=O)c2C1 (centres unmarked) | 50 to 75%

Recorded inhibition in vivo at 100 mg/kg of `Cc1cc(C(=O)O)cc2c(=O)c3c(oc12)CCCC3` , please. 50 to 75%

Entry under review: CC(C)(C)C1CCc2oc3ccc(C(=O)Nc4nnn[nH]4)cc3c(=O)c2C1 (centres unmarked) . Reported inhibition in vivo at 100 mg/kg? 0 to 25%
